Measured values drawn from PubChem BioAssay (NCI) for this set.

tested on: XF 498 CNS; experiment: NCI tumour cell line growth inhibition, 48 h
The following compounds are shown together with reported TGI values.
Value type: TGI

> print(dat)
                                    compound  target.of.assay  observed
 1  O=C(O)c1c2c(cc3c(=O)cc(-c4ccccc4)oc13)CCCC2       XF 498 CNS  > 100 µM
 2           CN(/N=C\c1ccnc2ccccc12)c1ccccc1       XF 498 CNS   47.5 µM
 3  CC(C)c1ccc(/C=C/c2cc(C(=O)NNC(=O)NC3CCCCC3)nc(=S)[nH]2)cc1       XF 498 CNS  > 100 µM
 4  C=C1CC2(CCS(=O)(=O)c3ccccc32)OC1=O (stereo unspecified)       XF 498 CNS   26.1 µM
 5  COc1ccccc1NC(=O)CC(=O)N1N=C(c2ccccc2)C(N=Nc2ccc(Cl)cc2)C1=O (stereo unspecified)       XF 498 CNS  > 100 µM
 6  CCC1(c2ccc(N)cc2)CCC(=O)NC1=O (stereo unspecified)       XF 498 CNS   4260 µM
 7      Cc1ccc(C(=O)NCCN(C)C)c2nc3ccccc3cc12       XF 498 CNS   3.95 µM
 8  O=C(O)c1ccc([C@@H]2C(=O)N(O)[C@@H]3C=CC[C@@H]32)cc1       XF 498 CNS  > 100 µM
 9  C/C(=N/O)c1sc(-c2nc(C)c(/C(C)=N\O)s2)nc1C       XF 498 CNS  > 100 µM
10  COc1ccc(/C=C2\CCC(CCN3CCOCC3)C2=O)cc1 (stereo unspecified)       XF 498 CNS  > 100 µM
11  COc1ccc2c(c1)[n+]([O-])c(/C(C)=N/NC(=O)c1ccccc1O)c(C)[n+]2[O-]       XF 498 CNS  > 100 µM

---

Listed compounds paired with reported TGI
system: HOP-18 NSCLC; assay: NCI tumour cell line growth inhibition, 48 h
Value type: TGI

> print(dat)
                                   compound  observed
1  c1ccc2c(CNCCCCCCCCNCc3cccc4ccccc34)cccc2c1   18.5 µM
2  O=C(NC(Cc1ccc(Cl)cc1)C(=O)O)c1ccc(I)cc1 (stereo not given)  > 100 µM
3  CC(C)c1ccc(/C=C/c2cc(C(=O)NNC(=O)NC3CCCCC3)nc(=S)[nH]2)cc1  > 100 µM
4    O=C(O)CN(c1ccc(F)cc1)S(=O)(=O)c1ccccc1  > 100 µM
5  Cc1ccc(C2=Nc3ccccc3S(=O)C(c3ccc4c(c3)OCO4)C2)cc1 (stereo not given)  > 100 µM

---

Quick reference: GI50 of the listed items.
test system: OVCAR-5 ovarian; assay: NCI tumour cell line growth inhibition, 48 h
Value type: GI50

> print(dat)
                                   molecule  target.of.assay  observed
1  C[C@H]1CCC/C=C/[C@@H]2C[C@H](O)C[C@H]2[C@H](O)/C=C/C(=O)O1  OVCAR-5 ovarian   85.7 nM
2       NC(N)=Nc1ccc(/C=C2\C=Cc3ccccc32)cc1  OVCAR-5 ovarian   2610 nM
3  Cc1cccc(Cl)c1NC(=O)c1cnc(Nc2cc(N3CCOCC3)cc(S(C)(=O)=O)c2)s1  OVCAR-5 ovarian    257 nM
4  Cc1ccccc1C(C(=O)NC1CCCCC1)N(C(=O)CNc1ccc(C#N)cc1)c1cccc(F)c1 (stereo not drawn)  OVCAR-5 ovarian  46600 nM
5  CC(C)Cc1ccc(C(C)C(=O)NCc2ccc(Cn3c(=O)sn(CCCI)c3=O)cc2)cc1 (stereo not drawn)  OVCAR-5 ovarian   1390 nM
6  COc1ccc(-c2[nH]nc(N)c2-c2cc(OC)c(OC)c(OC)c2)cc1  OVCAR-5 ovarian   65.9 nM
7  C=CC(=O)N1CC[C@H](n2nc(C#Cc3cc(OC)cc(OC)c3)c3c(N)ncnc32)C1  OVCAR-5 ovarian  62300 nM
8  C/C=C(\C)C(=O)O[C@H]1C=CC(=O)O[C@H]1COC(=O)[C@H](C)O  OVCAR-5 ovarian  18800 nM
